SYSTEM_UNDER_TEST: activated rat MMP13 (rat, UniProt P23097 99-466)
ASSAY_OVERVIEW: cell-based or functional assay
PROPERTY_LABEL: IC50, (adapted) rat fluorogenic peptide assay (nM)
All answers are understood in nM, so give the number only.

Write down IC50, (adapted) rat fluorogenic peptide assay measured for item 517A01-40E09 clone 80 (bispecific antibody) EVQLVESGGGLVQPGGSLRLSCAASGRTFSSYAMGWFRQAPGKEREFVAAISWSGGSTYYADSVKGRFTISRDNSKNTVYLQMNSLRPEDTAVYYCTAALAVYGPNRYRYGPVGEYNYWGQGTLVTVSSGGGGSGGGGSGGGGSGGGGSGGGGSGGGGSGGGGSEVQLVESGGGSVQAGGSLRLSCAASGSTFSRYSMNWYRQAPGKQREFVAGISVGRITNYAVSVRGRFTISRDNAEGTGYLQMNSLKPEDTAVYYCNAGGLQGYWGLGTLVTVSS
0.13
